Measured values drawn from patent US4022895A for this set.

Field: MIC. Provide a value for each of the molecules that follow.
Test system: E.coli SK 12140
Assay: In vitro antibacterial activity (MIC)
Assay type: cell-based
Conditions: Escherichia coli, SK12140; E.coli SK 12140, in vitro; read-out: MIC
Give me the value, and tack the unit on after it.

Record Cc1nnc(SCC2=C(C(=O)O)N3C(=O)C(NC(=O)C(N)c4ccc(OCC(N)=O)cc4)C3SC2)s1 (stereo not shown) , field MIC: 50 µg/mL

Sure, the documented MIC for COC(=O)COc1ccc([C@@H](N)C(=O)NC2C(=O)N3C(C(=O)O)=C(CSc4nnnn4C)CSC23)cc1 (stereo partly shown) is 12.5 µg/mL

Briefly, MIC measured for CC1=C(C(=O)O)N2C(=O)C(NC(=O)[C@H](N)c3ccc(OCC(N)=O)cc3)C2SC1 (stereo partly shown) : 25 µg/mL

The reported value for COC(=O)COc1ccc([C@@H](N)C(=O)NC2C(=O)N3C(C(=O)O)=C(C)CSC23)cc1 (stereo partly shown) in terms of MIC is 100 µg/mL

MIC reading for Cc1nnc(SCC2=C(C(=O)O)N3C(=O)C(NC(=O)[C@H](N)c4ccc(NCC(N)=O)cc4)C3SC2)s1 (stereo partly shown) : 25 µg/mL

Value of measured MIC for the entry Cn1nnnc1SCC1=C(C(=O)O)N2C(=O)C(NC(=O)[C@H](N)c3ccc(OCC(=O)O)cc3)C2SC1 (stereo partly shown) : 6.3 µg/mL

Noted for COC(=O)COc1ccc([C@@H](N)C(=O)NC2C(=O)N3C(C(=O)O)=C(CSc4nnc(C)s4)CSC23)cc1 (stereo partly shown) : its MIC reads 25 µg/mL

====

Test system: E.coli 12140
Experiment: In vivo activity (ED50) against E.coli 12140
Conditions: Escherichia coli, 12140, sc, E.coli 12140, s.c.
Labelling: ED50 reported below 10 mg/kg becomes 1; at or above becomes -1.

Lab note: ED50 threshold 10 mg/kg. Does this compound come in strictly under it? CC(=O)OCC1=C(C(=O)O)N2C(=O)C(NC(=O)[C@H](N)c3ccc(OCC(=O)O)cc3)C2SC1 (some centres unmarked)
-1

Report whether reported ED50 is lower than 10 mg/kg (strictly) for Cc1nnc(SCC2=C(C(=O)O)N3C(=O)C(NC(=O)C(N)c4ccc(OCC(N)=O)cc4)C3SC2)s1 (centres unmarked)
-1

Decide: ED50 of COC(=O)CNc1ccc([C@@H](N)C(=O)NC2C(=O)N3C(C(=O)O)=C(CSc4nnc(C)s4)CSC23)cc1 (some centres unmarked) strictly below 10 mg/kg?
1

Criterion: ED50 strictly below 10 mg/kg. Is it met by N[C@@H](C(=O)NC1C(=O)N2C(C(=O)O)=C(CSc3c[nH]nn3)CSC12)c1ccc(SCC(=O)O)cc1 (some centres unmarked) ?
-1

Hello, I'm reviewing records and need to know if ED50 of Cc1nnc(SCC2=C(C(=O)O)N3C(=O)C(NC(=O)[C@H](N)c4ccc(NCC(=O)O)cc4)C3SC2)s1 (some centres unmarked) is below 10 mg/kg. Could you check?
1

====

System: E.coli 12140
Assay: In vivo activity (ED50) against E.coli 12140
Conditions: Escherichia coli, 12140, sc, E.coli 12140, s.c.
Strictly below 10 mg/kg in ED50: True. Otherwise: False.

Quick check: ED50 of Cc1nnc(SCC2=C(C(=O)O)N3C(=O)C(NC(=O)C(N)c4ccc(OCC(=O)O)cc4)C3SC2)s1 (centres unmarked) under 10 mg/kg?
True

Does this compound meet the criterion ED50 < 10 mg/kg? N[C@@H](C(=O)NC1C(=O)N2C(C(=O)O)=C(CSc3c[nH]nn3)CSC12)c1ccc(OCC(=O)O)cc1 (some centres unmarked)
True

Item Cn1nnnc1SCC1=C(C(=O)O)N2C(=O)C(NC(=O)[C@H](N)c3ccc(OCC(N)=O)cc3)C2SC1 (some centres unmarked) : ED50 beneath 10 mg/kg, strictly?
True

Does the reported ED50 of Cn1nnnc1SCC1=C(C(=O)O)N2C(=O)C(NC(=O)[C@H](N)c3ccc(SCC(=O)O)cc3)C2SC1 (some centres unmarked) stay below 10 mg/kg?
True

Does the reported ED50 of the following compound sit strictly below 10 mg/kg? Cc1nnc(SCC2=C(C(=O)O)N3C(=O)C(NC(=O)[C@H](N)c4ccc(SCC(=O)O)cc4)C3SC2)s1 (some centres unmarked)
True

Does Cn1nnnc1SCC1=C(C(=O)O)N2C(=O)C(NC(=O)[C@H](N)c3ccc(OCC(=O)O)cc3)C2SC1 (some centres unmarked) have ED50 strictly under 10 mg/kg?
True

Criterion: ED50 strictly below 10 mg/kg. Is it met by Cc1nnc(SCC2=C(C(=O)O)N3C(=O)C(NC(=O)[C@H](N)c4ccc(SCC(N)=O)cc4)C3SC2)s1 (some centres unmarked) ?
False

Record COC(=O)COc1ccc([C@@H](N)C(=O)NC2C(=O)N3C(C(=O)O)=C(CSc4c[nH]nn4)CSC23)cc1 (some centres unmarked) : is its ED50 strictly below 10 mg/kg?
False

In plain terms, does COC(=O)COc1ccc([C@@H](N)C(=O)NC2C(=O)N3C(C(=O)O)=C(CSc4nnc(C)s4)CSC23)cc1 (some centres unmarked) come in under 10 mg/kg for ED50?
True

A record lists NC(=O)COc1ccc([C@@H](N)C(=O)NC2C(=O)N3C(C(=O)O)=C(CSc4c[nH]nn4)CSC23)cc1 (some centres unmarked) . Is its ED50 below 10 mg/kg?
False

Is ED50 strictly under 10 mg/kg for the entry Cc1nnc(SCC2=C(C(=O)O)N3C(=O)C(NC(=O)[C@H](N)c4ccc(OCC(N)=O)cc4)C3SC2)s1 (some centres unmarked) ?
True

Is it true that ED50 reported for Cc1nnc(SCC2=C(C(=O)O)N3C(=O)C(NC(=O)[C@H](N)c4ccc(OCC(=O)O)cc4)C3SC2)s1 (some centres unmarked) is less than 10 mg/kg?
True

API: query returns whether the compound falls strictly under 10 mg/kg in ED50. Query: CC1=C(C(=O)O)N2C(=O)C(NC(=O)[C@H](N)c3ccc(SCC(=O)O)cc3)C2SC1 (some centres unmarked)
False

Problem: For the compound COC(=O)COc1ccc([C@@H](N)C(=O)NC2C(=O)N3C(C(=O)O)=C(CSc4nnnn4C)CSC23)cc1 (some centres unmarked) , is ED50 under 10 mg/kg?
True
